Consider the following compounds; for each one, report its TGI.
Test system: ACHN renal
assay.text: NCI tumour cell line growth inhibition, 48 h

Below, 8 compounds whose answers are already recorded.
compound	assay.target	TGI
C=C(C[C@@H](O)[C@H](C)NC(=O)OCc1ccccc1)C(=O)OC(C)(C)C	ACHN renal	> 100 µM
CC1(C)N([O-])[N+](=O)C1(Br)c1ccccc1 (stereo not drawn)	ACHN renal	> 100 µM
COc1cc(/C=C2\NC(=S)C3Cc4c(OC)c(C)c(OC)c(OC)c4C2N3C)c(OC)c(C)c1OC (stereo not drawn)	ACHN renal	> 100 µM
O=C(/N=C1/OC(CN2CCOCC2)CN1C(=O)Nc1ccccc1)Nc1ccccc1 (stereo not drawn)	ACHN renal	> 100 µM
N#CCN1CCN(CC#N)CCN(CC#N)CCN(CC#N)CC1	ACHN renal	> 100 µM
CCOc1ccc(NC(=O)c2cc3ccccc3cc2O)cc1	ACHN renal	> 100 µM
CCN(CC)c1ccc2cc(-c3csc(C)n3)c(=O)oc2c1	ACHN renal	> 100 µM
N#CCCN(CCCN(C(=O)Nc1ccc(NC(=O)N(CCCN(CCC#N)C(N)=O)c2ccccc2)cc1)c1ccccc1)C(N)=O	ACHN renal	> 100 µM

Could you report TGI for every entry in the following list?
1. O=[N+]([O-])c1ccc2nc3ccscc-3c2c1
2. N#CSCC1CC(O)(c2ccccc2)CC(c2ccc(Cl)cc2)O1 (stereo not drawn)
3. Nc1ncnc2c1ncn2[C@@H]1C[C@H](NO)[C@@H](O)[C@H]1O
4. O=S1(=O)c2ccccc2-c2nccc3ccnc1c23
5. C[CH2][Ge]([CH2]C)([CH2]C)[O]C(=O)C([O][Ge]([CH2]C)([CH2]C)[CH2]C)c1ccccc1 (stereo not drawn)

(A)
1. > 100 µM
2. 8.25 µM
3. > 100 µM
4. 85.3 µM
5. 51.3 µM
